# System: NCI-H522 lung
# assay_explanation: NCI-60 one-dose screen, 48 h (100 = growth as untreated, 0 = no growth, -100 = all killed)
# run_parameters: 10 µM
Compounds without any hit were thinned out: in the full panel of roughly 83,000, 20% have a hit.
Threshold-based label: growth under 70% gives t, growth not under 70% gives f.

Please review the following examples before continuing.
COc1ccc(-c2nn(-c3cccc(NC(=O)c4cccc(C(F)(F)F)c4)c3)cc2-c2ccncc2)cc1Cl = t
COc1ccc(-c2ccc3cc(C(=O)Nc4ccc(O)c(C(=O)/C=C/c5cc(OC)c(OC)c(OC)c5)c4)ccc3c2)cc1 = f
CCOC(=O)N1C/C(=C/c2ccc(OC)cc2)C(=O)/C(=C/c2ccc(OC)cc2)C1 = t
Cc1ncc(-c2ccoc2)c(NC2CCCCCC2)n1 = f
COc1ccc2c(c1)N(CCO)C1=C(C(=O)OC1)C2c1ccccc1 (centres undefined) = t

Prompt line: Problem: For the compound CN(C)Cc1cn(-c2ncc(-c3ccc(C(F)(F)F)cc3)c(NC3CCCCCC3)n2)nn1 , is growth under 70%?
Response line: f

Prompt line: is_below(growth, 70%) for O=C(Nc1cccc(-n2cc(-c3ccncc3)c(-c3ccc(O)c(Cl)c3)n2)c1)c1cc(C(F)(F)F)cc(C(F)(F)F)c1 ?
Response line: t

Prompt line: Quick check: does Cc1cn(C2CCCCO2)c(=O)nc1NO (centres undefined) have growth under 70%?
Response line: f

Prompt line: API: query returns whether the compound falls strictly under 70% in growth. Query: COc1ccc(S(=O)(=O)Nc2c(/C=C\c3cc(OC)c(OC)c(OC)c3)ccc(OC)c2O)cc1
Response line: t

* * *

# Tested on: SNB-19 CNS
# assay_explanation: NCI-60 one-dose screen, 48 h (100 = growth as untreated, 0 = no growth, -100 = all killed)
# run_parameters: 10 µM
This is part of a sample that, as a whole, favours compounds with a hit. Of some 83,000 tested, about 20% had one in any assay.
Outcome: Condition met for growth of at least 80%; Condition not met for anything lower.

Solved cases below.
O=C1/C(=C\c2ccc(Cl)cc2)CN(C(=O)c2ccccc2)C/C1=C\c1ccc(Cl)cc1 = Condition not met
O=S(=O)(Nc1ccccn1)c1ccc(N=Nc2ccc(O)c3ncccc23)cc1 = Condition not met
CCCCOc1ccc(NC(=O)Nc2nnc(C)s2)cc1 = Condition met
Cc1ccc2oc3nc(C)c(C(=O)NCc4ccccc4)cc3c(=O)c2c1 = Condition met

Please look at the following compound next.
Prompt line: # check: growth of CC(C)=NNc1ncnc2c1ncn2C1OC(CO)C(O)C1O (stereo unspecified) is greater than or equal to 80%
Response line: Condition not met

* * *

# System: OVCAR-3 ovarian
# assay_explanation: NCI-60 one-dose screen, 48 h (100 = growth as untreated, 0 = no growth, -100 = all killed)
# run_parameters: 10 µM
The panel holds about 83,000 compounds, 20% with a hit somewhere; the sample as a whole holds those more often.
Catalogue of molecules with associated growth
Answer in %, number only, no unit symbol.

Prompt line: Send back OVCAR-3 ovarian growth of NC(=O)c1ccc(-c2cccc3c(=O)nc(N4CCOCC4)oc23)cc1 only.
Response line: 99.4

Prompt line: Write down the reported growth (system: OVCAR-3 ovarian) of COc1ccc(/C=C/C(=O)Nc2ccc(-c3nc4ccc(OC)cc4s3)cc2)cc1
Response line: 124

Prompt line: Look up and report measured growth (OVCAR-3 ovarian) for the following molecule: COc1ccc(-c2nc(-c3nc4cc(Cl)c(F)cc4[nH]3)c3ccccn23)cc1
Response line: 81.3

Prompt line: For OVCAR-3 ovarian, give the measured growth of the entry CN(C)CCN1C(=O)c2cccc3c(-c4ccc5ncn(C6CCCCC6)c5c4)ccc(c23)C1=O
Response line: 37.6
